For each entry below, report its IC50 value.
molecular target: Serotonin (5-HT) uptake (Rattus norvegicus, UniProt P31652); construct: The suspension was used as a crude synaptosome fraction; from tissue; host or cells: rat (male Wistar) frontal cortex, crude synaptosome fraction; assay: Serotonin (5-HT) uptake inhibitory activity using rat brain synaptosome (frontal cortex); assay type: biochemical; details: tritium-labeled 5-HT 8 nM, 37° C. 10 minutes, read-out: 50% Inhibitory concentration
Sequence (P31652 whole entry): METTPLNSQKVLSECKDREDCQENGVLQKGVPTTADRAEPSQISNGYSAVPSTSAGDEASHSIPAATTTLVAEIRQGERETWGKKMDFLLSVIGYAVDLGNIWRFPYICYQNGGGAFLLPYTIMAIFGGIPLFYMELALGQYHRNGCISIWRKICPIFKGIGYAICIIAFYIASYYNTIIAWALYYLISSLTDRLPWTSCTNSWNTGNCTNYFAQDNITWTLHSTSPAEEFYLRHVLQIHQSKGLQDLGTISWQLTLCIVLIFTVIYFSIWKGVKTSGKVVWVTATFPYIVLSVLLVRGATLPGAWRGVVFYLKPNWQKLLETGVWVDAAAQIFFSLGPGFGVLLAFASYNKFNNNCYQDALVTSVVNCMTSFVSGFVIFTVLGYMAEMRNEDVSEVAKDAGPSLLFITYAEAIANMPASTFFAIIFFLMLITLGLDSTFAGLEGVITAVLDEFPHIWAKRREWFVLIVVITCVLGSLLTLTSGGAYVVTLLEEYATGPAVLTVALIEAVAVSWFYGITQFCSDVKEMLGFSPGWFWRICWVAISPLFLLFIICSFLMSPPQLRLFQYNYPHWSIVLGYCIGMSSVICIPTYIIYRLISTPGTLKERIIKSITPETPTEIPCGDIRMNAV
Field format: number, assumed nM, no unit text.

# lookup: IC50 of CC1(C)CN(c2csc3ccccc23)[C@H]2CCCC[C@H]2N1 28.1

# lookup: IC50 of C[C@@H]1CN(c2ccc(F)c3occc23)[C@H]2CCCC[C@@H]2N1 7.1

# lookup: IC50 of CC1(C)CN(c2csc3ccccc23)[C@@H]2CCCC[C@@H]2N1 [Example 717] 4.2

# lookup: IC50 of COc1cc2ccc(N3CC(C)(C)N[C@H]4CCCC[C@H]43)cc2cc1C#N 4.6

# lookup: IC50 of COc1c(F)cc(N2CC(C)(C)N[C@H]3CCCC[C@@H]32)cc1F 7.4

# lookup: IC50 of CC1(C)CN(c2ccc(F)c3occc23)[C@H]2CCCC[C@H]2N1 1.3

# lookup: IC50 of CN1[C@@H]2CCCC[C@@H]2N(c2cccc3occc23)CC1(C)C 8.8

# lookup: IC50 of CC1(C)CN(c2cccc3sccc23)[C@@H]2CCCC[C@@H]2N1 (relative stereo) 5.8

# lookup: IC50 of COc1ccc(N2CC3(CCC3)N[C@H]3CCCC[C@H]32)c2ccoc12 4.5

---

For each entry below, report its log10(IC50) value.
biological target: Serotonin (5-HT) uptake (Rattus norvegicus, UniProt P31652); construct: The suspension was used as a crude synaptosome fraction; from tissue; host or cells: rat (male Wistar) frontal cortex, crude synaptosome fraction; test: Serotonin (5-HT) uptake inhibitory activity using rat brain synaptosome (frontal cortex); format: biochemical; details: tritium-labeled 5-HT 8 nM, 37° C. 10 minutes, read-out: 50% Inhibitory concentration
Recall that a logarithmic scale is used here: each number is log10 of IC50 in nM.

# lookup: log10(IC50) of CN1[C@H]2CCCC[C@@H]2N(c2ccc(Cl)c(Cl)c2)CC1(C)C 1.63

# lookup: log10(IC50) of C[C@@H]1CN(c2ccc3ccc(C#N)cc3c2)[C@H]2CCCC[C@@H]2N1 0.83

# lookup: log10(IC50) of CC1(C)CN(c2ccc(OC(F)F)c(Cl)c2)[C@@H]2CCCC[C@H]2N1 0.38

# lookup: log10(IC50) of Cc1noc(-c2ccc(N3C[C@@H](C)N[C@H]4CCCC[C@@H]43)cc2)n1 1.93

# lookup: log10(IC50) of COc1cc2ccc(N3CC(C)(C)N[C@@H]4CCCC[C@H]43)cc2cc1C#N 1.27

---

Target: Norepinephrine (NE) uptake (Rattus norvegicus, UniProt Q9WTR4)
Experiment: Norepinephrine (NE) uptake inhibitory activity using rat brain synaptosome (hippocampus)
Assay type: biochemical
Conditions: tritium-labeled NE 12 nM, 37° C. ten minutes, read-out: 50% inhibitory concentration
Description: Measurement of Norepinephrine (NE) Uptake Inhibitory Activity of Test Compound Using Rat Brain Synaptosome Male Wistar rats were decapitated, and their brains were removed and dissected to remove the hippocampus. The separated hippocampus was placed in a 20-fold weight of a 0.32 molarity (M) sucrose solution and homogenized with a potter homogenizer. The homogenate was centrifuged at 1000 g at 4° C. for 10 minutes, and the supernatant was further centrifuged at 20000 g at 4° C. for 20 minutes. […]
Where a name gives a salt, the structure may show the parent alone.
For each entry below, report its IC50 value.
Field format: number, assumed nM, no unit text.

# lookup: IC50 of CC1(C)CN(c2ccc(Cl)c(Cl)c2)[C@@H]2CCCCC[C@@H]2N1 (relative stereo) 8.8

# lookup: IC50 of CC1(C)CN(c2ccccc2Cl)[C@H]2CCCC[C@H]2N1 2.4

# lookup: IC50 of CC1(C)CN(c2ccc(F)c3occc23)[C@H]2CCCC[C@@H]2N1 3.6

# lookup: IC50 of CC1(C)CN(c2ccc3sccc3c2)[C@@H]2CCCCC[C@@H]2N1 (racemic) 7.5

# lookup: IC50 of CC1(C)CN(c2ccc(Cl)c(Cl)c2)[C@H]2CCCC[C@@H]2N1 3.8

# lookup: IC50 of CN1[C@H]2CCCC[C@@H]2N(c2ccc(Cl)c(Cl)c2)CC1(C)C 6.6

# lookup: IC50 of CC1(C)CN(c2cccc3sccc23)[C@@H]2CCCC[C@@H]2N1 (relative stereo) 0.9

# lookup: IC50 of CN1[C@H]2CCCC[C@@H]2N(c2ccc3sccc3c2)CC1(C)C 6

# lookup: IC50 of Clc1ccc(N2CCN[C@H]3CCCC[C@@H]32)c2ccoc12 2.5

# lookup: IC50 of C[C@@H]1CN(c2ccc3sccc3c2)[C@H]2CCCC[C@@H]2N1 [Example 1121] 0.7

# lookup: IC50 of CC1(C)CN(c2ccc(O)cc2)[C@H]2CCCC[C@H]2N1 30.4

# lookup: IC50 of CC1(C)CN(c2ccc3occc3c2)[C@H]2CCCC[C@@H]2N1 1.7

# lookup: IC50 of C[C@@H]1CN(c2ccc3ncsc3c2)[C@H]2CCCC[C@@H]2N1 1.8

# lookup: IC50 of CC1(C)CN(c2cc(Cl)c3occc3c2)[C@H]2CCCC[C@@H]2N1 4.8

# lookup: IC50 of CC1(C)CN(c2ccc3[nH]c(C#N)cc3c2)[C@H]2CCCC[C@@H]2N1 6

# lookup: IC50 of Cn1c(C#N)cc2cc(N3CC(C)(C)N[C@@H]4CCCC[C@@H]43)ccc21 23.6

# lookup: IC50 of CC1(C)CN(c2ccnc3[nH]ccc23)[C@H]2CCCC[C@@H]2N1 [Example 586, fumarate] 4

# lookup: IC50 of CC1(C)CN(c2ccc3cc(O)ccc3c2)[C@H]2CCCC[C@@H]2N1 1

Just for reference, patent US11273168B2 is where these values come from.
